# System: SK-BR-3
# Measurement notes: SRB colorimetric assay of cell growth and viability, SK-BR-3
# Type: cell-based, human
# Reported conditions: SK-BR-3; 48 hours exposure
Where a SMILES comes first, the peptide text is derived from it. Bridges are numbered along the chain shown (N, C = ends). [ ]: non-standard residue; d: D form. The star is where a group is joined. d(aIle) = CC[C@H](C)[C@@H](N)C(=O)O; d(aThr) = C[C@@H](O)[C@@H](N)C(=O)O; Hexanoyl(5-Me) = CC(C)CCCC(=O)*; Orn = NCCC[C@H](N)C(=O)O; Dhb = C/C=C(\N)C(=O)O
Response field label takes true when LC50 is strictly below 2000 nM and false in all other cases.

Study these solved cases before continuing.
{"Molecule": "C/C=C1\\NC(=O)[C@H](Cc2ccccc2)NC(=O)[C@@H](C(C)C)NC(=O)[C@@H]([C@@H](C)CC)NC(=O)[C@H](NC(=O)[C@H](NC(=O)[C@H](CCCN)NC(=O)[C@H]2CCCN2C(=O)[C@H](NC(=O)[C@@H](NC(=O)[C@H](CCC(N)=O)NC(=O)[C@H](NC(=O)CCCC(C)C)C(C)C)C(C)C)C(C)C)[C@@H](C)CC)[C@@H](C)OC(=O)[C@H](C(C)C)NC1=O [Compound 119, [Gln^12]-KF] ({Hexanoyl(5-Me)}-[dV]QV[dV][dP][Orn][d(aIle)][d(aThr)][d(aIle)][dV]F[Dhb]V; ester 8-C)", "Category": "true"}
{"Molecule": "C/C=C1\\NC(=O)[C@H](Cc2ccccc2)NC(=O)[C@@H](C(C)C)NC(=O)[C@@H]([C@@H](C)CC)NC(=O)[C@H](NC(=O)[C@H](NC(=O)[C@H](CCCN)NC(=O)[C@H]2CCCN2C(=O)[C@H](NC(=O)[C@@H](NC(=O)[C@H](CC(C)C)NC(=O)[C@H](NC(=O)CCCC(C)C)C(C)C)C(C)C)C(C)C)[C@@H](C)CC)[C@@H](C)OC(=O)[C@H](C(C)C)NC1=O [Compound 113, [Leu^12]-KF] ({Hexanoyl(5-Me)}-[dV]LV[dV][dP][Orn][d(aIle)][d(aThr)][d(aIle)][dV]F[Dhb]V; ester 8-C)", "Category": "false"}
{"Molecule": "C/C=C1\\NC(=O)[C@H](Cc2cccc(Cl)c2)NC(=O)[C@@H](C(C)C)NC(=O)[C@@H]([C@@H](C)CC)NC(=O)[C@H](NC(=O)[C@H](NC(=O)[C@H](CCCN)NC(=O)[C@H]2CCCN2C(=O)[C@H](NC(=O)[C@@H](NC(=O)[C@@H](NC(=O)[C@H](NC(=O)CCCC(C)C)C(C)C)[C@@H](C)O)C(C)C)C(C)C)[C@@H](C)CC)[C@@H](C)OC(=O)[C@H](C(C)C)NC1=O [Compound 82, [Phe(3-Cl)^3]-KF]", "Category": "true"}
{"Molecule": "C/C=C1\\NC(=O)[C@H](Cc2ccc(F)c(F)c2)NC(=O)[C@@H](C(C)C)NC(=O)[C@@H]([C@@H](C)CC)NC(=O)[C@H](NC(=O)[C@H](NC(=O)[C@H](CCCN)NC(=O)[C@H]2CCCN2C(=O)[C@H](NC(=O)[C@@H](NC(=O)[C@@H](NC(=O)[C@H](NC(=O)CCCC(C)C)C(C)C)[C@@H](C)O)C(C)C)C(C)C)[C@@H](C)CC)[C@@H](C)OC(=O)[C@H](C(C)C)NC1=O [Compound 84, [Phe(3,4-F2)^3]-KF]", "Category": "true"}

Qu. is_below(LC50, 2000 nM) for C/C=C1\NC(=O)[C@H](Cc2ccccc2)NC(=O)[C@@H](C(C)C)NC(=O)[C@@H]([C@@H](C)CC)NC(=O)[C@H](NC(=O)[C@H](NC(=O)[C@H](CCCN)NC(=O)[C@H]2CCCN2C(=O)[C@H](NC(=O)[C@@H](NC(=O)[C@H](CCC(=O)O)NC(=O)[C@H](NC(=O)CCCC(C)C)C(C)C)C(C)C)C(C)C)[C@@H](C)CC)[C@@H](C)OC(=O)[C@H](C(C)C)NC1=O [Compound 115, [Glu^12]-KF] ({Hexanoyl(5-Me)}-[dV]EV[dV][dP][Orn][d(aIle)][d(aThr)][d(aIle)][dV]F[Dhb]V; ester 8-C) ?
Ans. false
